test system: S. cerevisiae s288c autofluorescence, flow cytometry 520 nm, 3 h; assay: yeast autofluorescence interference at GFP wavelength, dose response, artefact control for yeast TOR pathway modulator project, flow cytometry, strain s288c, KU SAR set 2, multiplex (AID 504463); details: at 33.3 µM; hits give high values
The source made the active and inactive calls.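 How the source made its calls: active means fluorescence span above 25 thousand equivalent fluorochrome units, or a 33 microM versus DMSO difference score above 25; inactive means the rest.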
assay readout: fluorescence change (kMESF span)

entry_smiles=CNc1nc(N)c([N+](=O)[O-])c(Nc2cccc(OC)c2)n1 tgt="S. cerevisiae s288c autofluorescence, flow cytometry 520 nm, 3 h" reported_measurement="0.14 (inactive)"
entry_smiles=CNc1nc(NC)c([N+](=O)[O-])c(Nc2cccc(Cl)c2)n1 tgt="S. cerevisiae s288c autofluorescence, flow cytometry 520 nm, 3 h" reported_measurement="0.07 (inactive)"
entry_smiles=CCOC(=O)c1c(N)nc(NC)nc1Nc1cccc(F)c1 tgt="S. cerevisiae s288c autofluorescence, flow cytometry 520 nm, 3 h" reported_measurement="0.13 (inactive)"
entry_smiles=CNc1nc(NC2CCCCC2)c([N+](=O)[O-])c(N2CCOCC2)n1 tgt="S. cerevisiae s288c autofluorescence, flow cytometry 520 nm, 3 h" reported_measurement="0.14 (inactive)"
entry_smiles=COc1cccc(-c2cc(Nc3cc(C)[nH]n3)nc(NCc3ccccc3)n2)c1 tgt="S. cerevisiae s288c autofluorescence, flow cytometry 520 nm, 3 h" reported_measurement="0.13 (inactive)"
entry_smiles=COc1ccccc1-c1cc(Nc2cc(C)[nH]n2)nc(NCc2ccccc2)n1 tgt="S. cerevisiae s288c autofluorescence, flow cytometry 520 nm, 3 h" reported_measurement="0.06 (inactive)"
entry_smiles=CNc1nc(N)c(C(=O)c2ccc(C)c(C)c2)c(Nc2cccc(Cl)c2)n1 tgt="S. cerevisiae s288c autofluorescence, flow cytometry 520 nm, 3 h" reported_measurement="0.07 (inactive)"
entry_smiles=CNc1nc(N)c([N+](=O)[O-])c(Nc2cccc(Br)c2)n1 tgt="S. cerevisiae s288c autofluorescence, flow cytometry 520 nm, 3 h" reported_measurement="0.07 (inactive)"
entry_smiles=CCNc1nc(N)c([N+](=O)[O-])c(Nc2cccc(Cl)c2)n1 tgt="S. cerevisiae s288c autofluorescence, flow cytometry 520 nm, 3 h" reported_measurement="0.49 (inactive)"
entry_smiles=CNc1nc(N)c([N+](=O)[O-])c(Nc2ccccc2F)n1 tgt="S. cerevisiae s288c autofluorescence, flow cytometry 520 nm, 3 h" reported_measurement="0.07 (inactive)"
entry_smiles=CNc1nc(N)cc(Nc2ccccc2F)n1 tgt="S. cerevisiae s288c autofluorescence, flow cytometry 520 nm, 3 h" reported_measurement="0 (inactive)"

* * *

system: S. cerevisiae s288c autofluorescence, flow cytometry 520 nm, 3 h; assay: yeast autofluorescence interference at GFP wavelength, dose response, artefact control for yeast TOR pathway modulator project, flow cytometry, strain s288c, KU SAR set 2, multiplex (AID 504463); conditions: at 33.3 µM; hits give high values
assay readout: fluorescence change (kMESF span)

entry_smiles=CNc1nc(N)cc(Nc2cccc(Cl)c2)n1 assay_readout="fluorescence change (kMESF span)" reported_measurement=0.06
entry_smiles=Cc1cc(Nc2cc(-c3ccccc3)nc(NCc3ccccc3)n2)n[nH]1 assay_readout="fluorescence change (kMESF span)" reported_measurement=0.06
entry_smiles=CCNc1nc(NC2CCCCC2)c([N+](=O)[O-])c(N2CCOCC2)n1 assay_readout="fluorescence change (kMESF span)" reported_measurement=0
entry_smiles=COC(=O)c1cccc(-c2cc(Nc3cc(C)[nH]n3)nc(NCc3ccccc3)n2)c1 assay_readout="fluorescence change (kMESF span)" reported_measurement=0.06
entry_smiles=CNc1nc(N)cc(Oc2cccc(Cl)c2)n1 assay_readout="fluorescence change (kMESF span)" reported_measurement=0.06
entry_smiles=CNc1nc(N)c([N+](=O)[O-])c(Nc2cccc(Oc3ccccc3)c2)n1 assay_readout="fluorescence change (kMESF span)" reported_measurement=0.07

Sourced from PubChem BioAssay AID504463
